# Tested system: HLA-A*02:01 (Homo sapiens, UniProt P04439, D140Y/D185E/D98H/E176V/E277Q/G131W/G231S/I119V/I121R/I166T/I218V/L300P/L318F/N151K/N90K/P208A/P217A/Q86G/Q94H/R138H/R169H/T345S)
# Assay comment: MHC binding assay (UV-ligand exchange, ELISA of stabilized MHC complexes)
# Stated conditions: MHC class I binding score; binding to HLA-A*02:01 ranged by peptide exchange yield (UV-ligand exchange, ELISA)
Measurement type: Peptide exchange

- Substance: "103 (TLAEEVVAL; listed as Homo sapiens) [compound 103]"
  Peptide exchange: "″+++″ (≥50% = +++)"
- Substance: "306 (ALVNVQIPL; listed as Homo sapiens) [compound 306]"
  Peptide exchange: "″+++″ (≥50% = +++)"
- Substance: "597 (KLLEGQVIQL; listed as Homo sapiens) [compound 597]"
  Peptide exchange: "″+++″ (≥50% = +++)"
- Substance: "159 (GLVGNPLPSV; listed as Homo sapiens) [compound 159]"
  Peptide exchange: "″++++″ (≥75% = ++++)"
- Substance: "160 (FLFDEEIEQI; listed as Homo sapiens) [compound 160]"
  Peptide exchange: "″+++″ (≥50% = +++)"

Record Peptide exchange per entry; entries follow.
1. 201 (RLVDYLEGI; listed as Homo sapiens) [compound 201]
2. 383 (ALLELENSVTL; listed as Homo sapiens) [compound 383]

1: ″+++″ (≥50% = +++); 2: ″+++″ (≥50% = +++)

Record Peptide exchange per entry; entries follow.
1. 248 (FLFPNQYVDV; listed as Homo sapiens) [compound 248]
2. 444 (GLLRDEALAEV; listed as Homo sapiens) [compound 444]
3. 498 (KLWTGGLDNTV; listed as Homo sapiens) [compound 498]
4. 369 (GLFPEHLIDV; listed as Homo sapiens) [compound 369]
5. 546 (VMIAGKVAVV; listed as Homo sapiens) [compound 546]
6. 183 (FGLDLVTEL; listed as Homo sapiens) [compound 183]
7. 266 (KITDTLIHL; listed as Homo sapiens) [compound 266]

["″+++″ (≥50% = +++)", "″+++″ (≥50% = +++)", "″+++″ (≥50% = +++)", "″+++″ (≥50% = +++)", "″+++″ (≥50% = +++)", "″+++″ (≥50% = +++)", "″+++″ (≥50% = +++)"]

---

# Tested system: HLA-A*02:01 (Homo sapiens, UniProt P04439, D140Y/D185E/D98H/E176V/E277Q/G131W/G231S/I119V/I121R/I166T/I218V/L300P/L318F/N151K/N90K/P208A/P217A/Q86G/Q94H/R138H/R169H/T345S)
# Assay comment: MHC binding assay (UV-ligand exchange, ELISA of stabilized MHC complexes)
# Stated conditions: MHC class I binding score; binding to HLA-A*02:01 ranged by peptide exchange yield (UV-ligand exchange, ELISA)
# Text: Candidate peptides for T cell based therapies according to the present invention were further tested for their MHC binding capacity (affinity). The individual peptide-MHC complexes were produced by UV-ligand exchange, where a UV-sensitive peptide is cleaved upon UV-irradiation, and exchanged with the peptide of interest as analyzed. Only peptide candidates that can effectively bind and stabilize the peptide-receptive MHC molecules prevent dissociation of the MHC complexes. […]
Measurement type: Peptide exchange

// below: answered substances
- Substance: "349 (SLTEYLQNV; listed as Homo sapiens) [compound 349]"
  Measurement type: "Peptide exchange"
  Reported result: "″++++″ (≥75% = ++++)"
- Substance: "318 (GLINTGVLSV; listed as Homo sapiens) [compound 318]"
  Measurement type: "Peptide exchange"
  Reported result: "″++″ (≥20% = ++)"
- Substance: "88 (FLLVGDLMAV; listed as Homo sapiens) [compound 88]"
  Measurement type: "Peptide exchange"
  Reported result: "″+++″ (≥50% = +++)"
- Substance: "515 (LLQELVLFL; listed as Homo sapiens) [compound 515]"
  Measurement type: "Peptide exchange"
  Reported result: "″+++″ (≥50% = +++)"
- Substance: "549 (AMLENASDIKL; listed as Homo sapiens) [compound 549]"
  Measurement type: "Peptide exchange"
  Reported result: "″+++″ (≥50% = +++)"
- Substance: "512 (SLSEIVPCL; listed as Homo sapiens) [compound 512]"
  Measurement type: "Peptide exchange"
  Reported result: "″+++″ (≥50% = +++)"
- Substance: "30 (LILDWVPYI; listed as Homo sapiens) [compound 30]"
  Measurement type: "Peptide exchange"
  Reported result: "″+++″ (≥50% = +++)"
- Substance: "36 (YVLEDLEVTV; listed as Homo sapiens) [compound 36]"
  Measurement type: "Peptide exchange"
  Reported result: "″++″ (≥20% = ++)"
- Substance: "27 (ILADIVISA; listed as Homo sapiens) [compound 27]"
  Measurement type: "Peptide exchange"
  Reported result: "″+++″ (≥50% = +++)"
- Substance: "352 (SLLELLHIYV; listed as Homo sapiens) [compound 352]"
  Measurement type: "Peptide exchange"
  Reported result: "″+++″ (≥50% = +++)"

Record Peptide exchange per entry; entries follow.
1. 503 (SLNHFTHSV; listed as Homo sapiens) [compound 503]
2. 329 (FLVTLNNVEV; listed as Homo sapiens) [compound 329]

["″+++″ (≥50% = +++)", "″++++″ (≥75% = ++++)"]

Record Peptide exchange per entry; entries follow.
1. 267 (ALQDFLLSV; listed as Homo sapiens) [compound 267]
2. 253 (GLDAATATV; listed as Homo sapiens) [compound 253]
3. 187 (RQISIRGIVGV; listed as Homo sapiens) [compound 187]
4. 16 (VLFQGQASL; listed as Homo sapiens) [compound 16]
5. 199 (ALQDVPLSSV; listed as Homo sapiens) [compound 199]
6. 284 (ILLSQTTGV; listed as Homo sapiens) [compound 284]

1. ″+++″ (≥50% = +++)
2. ″++″ (≥20% = ++)
3. ″+++″ (≥50% = +++)
4. ″+++″ (≥50% = +++)
5. ″+++″ (≥50% = +++)
6. ″+++″ (≥50% = +++)

# Peptide exchange (substance: 92 (YLIPFTGIVGL; listed as Homo sapiens) [compound 92] ) is ″++″ (≥20% = ++)
